Just for reference, the RNAGym collection of RNA variant scans (doi:10.7554/elife.90254) is where these values come from.

B1: OR4K15 (parent)
chain: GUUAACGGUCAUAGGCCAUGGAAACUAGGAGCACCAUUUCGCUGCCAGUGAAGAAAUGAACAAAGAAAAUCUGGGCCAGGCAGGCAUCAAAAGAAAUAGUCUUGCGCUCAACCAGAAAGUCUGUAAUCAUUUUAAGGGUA

Variants of: B1
Test: self-cleavage, relative activity (ratio to wild type); higher = more cleavage; in vitro, sequencing; the parent is a self-cleaving ribozyme
experimental_readout: self-cleavage
Answer with a number only.

Item "GUUAACGGUCAUAGGCCAUGGAAACUAGGAGCACCAUUUCGCUGCCAGUGAAGAAAUGAGCAAAGAAAAUCUGGGCCAGGCAGGCAUCAAAAGAAAUAGACUUGCGCUCAACCAGAAAGUCUGUAAUCAUUUUAAGGGUA" has what recorded self-cleavage?
0.52

Item "GCUAACGGUCAUAGGCCACGGAAACUAGGAGCACCAUUUCGCUGCCAGUGAAGAAAUGAACAAAGAAAAUCUGGGCCAGGCAGGCAUCAAAAGAAAUAGUCUUGCGCUCAACCAGAAAGUCUGUAAUCAUUUUAAGGGUA" has what recorded self-cleavage?
0.96

Item "GUUAACGGUCAUAGGCCAUGGAAACUAGGAGCACCAUUUCGCUGCCAGUGAAGAAAUGAACAAAGAAAACCUGGGCCAGGCAGGCAUCAAAAGAAAUAGUCUUGCGCUCAACCAGAAAGUCUGUAAUCAAUUUAAGGGUA" has what recorded self-cleavage?
0.19

Item "GUUAACGGUCAUAGGCCAUGGAAACUAGGAGCACCAUUUCGCUGCCAGUGAAGAAAUGAACAAAGAAAAUCUGGGCCAGGCAGGCAUCAAAAGAAACAGUCUUGCGCUCAACCAGAAUGUCUGUAAUCAUUUUAAGGGUA" has what recorded self-cleavage?
1.62

Item "GUUAACGGUCAUAGGCCAUGGAAACUAGGAGCACCACUUCGCUGCCAGUGAAGAAAUGAACAAAGAAAAUCUGGGCCAGGCAGGCAUCAAAAGAAAUAGUCUUGCGCUCAACCUGAAAGUCUGUAAUCAUUUUAAGGGUA" has what recorded self-cleavage?
0.15

Item "GUUAACGGUCAUAGGCCAUGGAAACUAGGAGCACCAUUUCGCUGCCAGCGAAGAAAUGGACAAAGAAAAUCUGGGCCAGGCAGGCAUCAAAAGAAAUAGUCUUGCGCUCAACCAGAAAGUCUGUAAUCAUUUUAAGGGUA" has what recorded self-cleavage?
0.7

Item "GUUAACGGUCAUAGGCCAUGGAAACUAGGAGCACCAUUUCGCUGCCAGUGAAGAAACGAACAAAGAAAAUCUGGGCCAGGCAGGCAUCAAAAGAAAUAGUCUUGCGCUCAACCAGAAAGUCUGUAAUCAUUUUAGGGGUA" has what recorded self-cleavage?
1.34

Item "GUUAACGGUCAUAAGCCAUGGAAACUAGGAGCACCAUUUCGCUGCCAGUGAAGAAAUGAACAAAGAAAAUCUGGGCCAGGCAGGCAUCAAAAGAAAUAGUCUUGCGCUCAACCUGAAAGUCUGUAAUCAUUUUAAGGGUA" has what recorded self-cleavage?
0.01

Item "GUUAACGGUCAUAGGCCAUGGAAACUAGGGGCACCAUUUCGCUGCCAGUGAAGAAAUGAACAAAGUAAAUCUGGGCCAGGCAGGCAUCAAAAGAAAUAGUCUUGCGCUCAACCAGAAAGUCUGUAAUCAUUUUAAGGGUA" has what recorded self-cleavage?
1.22

Item "GUUAACGGUCCUAGGCCAUGGAAACUAGGAGCACCAUUUCGCUGCCAGUGAAGAAAUGAACAAAGAAAAUCUGGGCCAGGCAGGCAUCAAAAGAAAUAGUCUUGCGCUCAACCAGAAAGUCCGUAAUCAUUUUAAGGGUA" has what recorded self-cleavage?
1.46

Item "GUUAACGGUCAUAGGCCAUGGAAACUAGGAGCACCAUUUCGCUGCCAGAGAAGAAAUGAACAAAGAAAAUCUGGGCCAGGCGGGCAUCAAAAGAAAUAGUCUUGCGCUCAACCAGAAAGUCUGUAAUCAUUUUAAGGGUA" has what recorded self-cleavage?
0.52
